The origin of these recorded values is patent US20050020492A1.

Target: human MCH-2R (human, UniProt Q969V1 1-340)
Sequence (Q969V1 whole entry): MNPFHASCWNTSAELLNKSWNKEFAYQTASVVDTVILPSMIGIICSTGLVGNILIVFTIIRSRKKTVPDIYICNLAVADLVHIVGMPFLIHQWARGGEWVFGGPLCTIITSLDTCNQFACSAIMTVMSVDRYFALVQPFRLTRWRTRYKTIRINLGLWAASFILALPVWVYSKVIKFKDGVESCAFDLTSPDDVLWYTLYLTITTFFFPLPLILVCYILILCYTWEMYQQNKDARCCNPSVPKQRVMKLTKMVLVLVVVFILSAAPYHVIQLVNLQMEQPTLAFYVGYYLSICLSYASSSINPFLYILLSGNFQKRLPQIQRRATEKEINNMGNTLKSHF
Assay: cell-based or functional assay
Positions of bridges follow the written chain, without caps; N, C: chain ends.
Each entry below carries its reported EC50, aequorin bioluminescence.
Use nM as the unit, but write only the number.

1. Ac-RCMLFRVYRPC-NH2 (disulfide 2-11 (inferred)) [SEQ. ID. NO. 20 (Phe^10 analog of Ac-hMCH(6-16)-NH2)] :: 50
2. RCMLXRVYRPC (HELM PEPTIDE1{[ac].R.C.M.L.[O=C([C@H](Cc1ccc2ccccc2c1)N[*:1])[*:2]].R.V.Y.R.P.C.[am]}$PEPTIDE1,PEPTIDE1,3:R3-12:R3$$$V2.0; SMILES CSCC[C@@H]1NC(=O)[C@@H](NC(=O)[C@H](CCCNC(=N)N)NC(C)=O)CSSC[C@@H](C(N)=O)NC(=O)[C@@H]2CCCN2C(=O)[C@H](CCCNC(=N)N)NC(=O)[C@H](Cc2ccc(O)cc2)NC(=O)[C@H](C(C)C)NC(=O)[C@H](CCCNC(=N)N)NC(=O)[C@H](Cc2ccc3ccccc3c2)NC(=O)[C@H](CC(C)C)NC1=O) [SEQ. ID. NO. 21 (Nal(2′)^10 analog of Ac-hMCH(6-16)-NH2)] :: 81

Could you now look at the following binder, please?
Q: Any idea what its EC50, aequorin bioluminescence is? The binder is Ac-RCMLLRVYRPC-NH2 (disulfide 2-11 (inferred)) [SEQ. ID. NO. 17 (Leu^10 analog of Ac-hMCH(6-16)-NH2)]
Ans: 57
